Origin of measurements: patent US6337206B1

target.under.test: T1, human GALR2 (UniProt O43603 1-387)
T1 chain: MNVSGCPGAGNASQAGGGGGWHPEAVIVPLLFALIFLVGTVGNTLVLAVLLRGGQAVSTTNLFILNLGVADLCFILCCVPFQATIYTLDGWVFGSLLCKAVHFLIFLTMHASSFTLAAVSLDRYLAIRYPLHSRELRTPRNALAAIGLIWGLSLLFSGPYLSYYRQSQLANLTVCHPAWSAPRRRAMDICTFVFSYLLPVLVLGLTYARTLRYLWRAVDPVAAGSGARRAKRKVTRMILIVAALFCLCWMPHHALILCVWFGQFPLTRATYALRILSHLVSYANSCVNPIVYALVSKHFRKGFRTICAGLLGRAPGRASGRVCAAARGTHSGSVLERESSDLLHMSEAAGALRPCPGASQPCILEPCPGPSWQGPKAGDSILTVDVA
method.summary: 125I-human galanin competition binding
No end group written: not given here.
observed.property: IC50

State the recorded IC50 for this entry: WTLNSAGYLLGPHAIDNHRSFSDKHGLT (peptide, UniProt P10683 34-61, looked up, range 2-29; also called rGAL(2-29)) [rat Gal (2-29)] 15.4 nM

State the recorded IC50 for this entry: TLNSAGYLLGPHAIDNHRSFSDKHGLT [rat Gal (3-29)] > 1000 nM

State the recorded IC50 for this entry: GWTLNSAGYLLGPHAIDNHRSFSDKHGLT (ends and bridges not checked) [rat galanin] 1.6 nM
